Where do these numbers come from? They come from the supplement of paper PMC6555819.

system: PPARg:RXRa (NR concentration 180 nM, RXRa partner concentration 90 nM); experiment: PBM binding z-score (relative to random genomic background probes); higher = stronger binding; sequences stand for … in GC…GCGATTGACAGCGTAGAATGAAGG
measured-quantity: PBM binding z-score

- chain: "ACCGAAAGGTCGACGAGGTGAGTATACACCGTTT"
  observed-value: 2.71
- chain: "TCTCGGAGGACACGAAAGTCAGAGCTTTCCAGAG"
  observed-value: -0.000671
- chain: "ATGTGTAGGTTAAGGGTCATTCAGGTTGGTTCGC"
  observed-value: 9.4
- chain: "ACTAGCAGGCCAGGGGTCACTCAAGATTAGTCCG"
  observed-value: 6.84
- chain: "GCGACTGGGGCATCGGCAGGTTACCATAACTTAA"
  observed-value: 0.979
- chain: "ACTAGCAGGCCAAGTTTGTGTCACTCAAACAAAG"
  observed-value: -0.46
- chain: "TTACCAAGATGAAAGGTCGTTGATGCACGCCTTG"
  observed-value: 3.53
- chain: "TCATACAGGTAAAGGTGAAAGTCGAACGATATGA"
  observed-value: 2.39
- chain: "GGTCGGAGGACAAGGTCAGAGCTTTGTCCGTAGA"
  observed-value: 0.581
- chain: "AGAATGAGGTTATTAAGATGAGGGAATTGCGGTC"
  observed-value: 1.22
- chain: "ATCGAAAGGTCGACGAGGTGAATATACACCGTTT"
  observed-value: 3.21
- chain: "GCTATTAGTTTAAAGGGCAACCGAATGATTCTCG"
  observed-value: 2.98
- chain: "ACTAGTTGGTCAGCTGAGGGCACACACAATTCGG"
  observed-value: 0.887
- chain: "ACTTACGGGTCAACGAGGTGATAGCACGCGTATA"
  observed-value: 5.36
- chain: "CGTCAATGTTCAACTAAGGTAACGTAAAGCACGC"
  observed-value: 0.538
- chain: "ACTAGCAGGCCACGTTTGGGTCACTCAAACAAAG"
  observed-value: 0.444
- chain: "GCTTGTAGATCTAGGTTAAGAAAGACTAAGCTAA"
  observed-value: 0.547
- chain: "CGTCCAAGGTCAAAGCTCAGTGAAGAGATGACGG"
  observed-value: 4.98
- chain: "ATCGAAAGGTCGAAGGTGAGTAGACCCACCCGAA"
  observed-value: 4.92
- chain: "AGAATGAGGTGAAGATCAGGGAAACAGAATACAT"
  observed-value: 2.33
- chain: "ACATGTAGGTTAAGGGTCATTCAGGTTGGTTCGC"
  observed-value: 11.1
- chain: "GGAACGAGGGCAAGCTGATAGCAGAGTTTGATGG"
  observed-value: 0.979
- chain: "CCGCCTAGGTCAGGGCCAGTATAGGAGGAACGTT"
  observed-value: 0.674
- chain: "CTCGAAAAGTCGGTTGAGGTGAGTATACGGATAA"
  observed-value: -0.07
- chain: "CTCAAAAGGTCGGTTGAGGTGAGTATACGGATAA"
  observed-value: 0.821
- chain: "TCTAGCAGGCCAGAGGGTCACGCAAGAGGTACGG"
  observed-value: 2.4
- chain: "TCTATTAGTTGATTAGGGCAATCGAAACAGCGGA"
  observed-value: 0.0917
- chain: "ATCGAAAGGTCGTGAGGTGAGTATACAGAAAGGC"
  observed-value: 4.06
- chain: "TCATATAGGTAAAAGGTGAAACTCGGTGTGGTAA"
  observed-value: 9.08
- chain: "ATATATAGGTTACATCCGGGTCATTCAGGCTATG"
  observed-value: 6.17
- chain: "GCTAGCAGGCCATTTGGGTCACACAATGACGGGC"
  observed-value: 1.2
- chain: "CCGAGTAGGTTATGGGGCATTCAGGCAACGGTGA"
  observed-value: 3.48
- chain: "GATACAGGTTCAGCTAGAGGCCAGAGTATGGAAA"
  observed-value: 0.495
- chain: "GCTATTAGATGAAAGGGCAACCGAATGATTCTCG"
  observed-value: 3.72
- chain: "ATATGTAGGCTAAGGGTCATTCAGGTTGGTTCGC"
  observed-value: 10.2
- chain: "GCAGACAGGTGGAACGCAGGTAACTCAGGGTGGC"
  observed-value: 0.342
- chain: "GCTTGCAGGCCATTTGGGTCACTCAATGACGGGC"
  observed-value: 0.845
- chain: "ATATGTAGGTTATCGGGCCATTCAGTTTGCGCAT"
  observed-value: 5.22
- chain: "ATATGTAGGTTATCCGGTCATTCAGTTTGCGCAT"
  observed-value: 5.51
- chain: "GCTAGTTGGTCAGGAAAAGGTCACACACCGGTCG"
  observed-value: 2.57
- chain: "ATCTCTAGGTAAAGATAGGTCAGTGAATGCAAAT"
  observed-value: 0.963
- chain: "CGAACTAGTTCATTGACAGGACAGTGAATAGTAA"
  observed-value: 0.284

---

tested on: RARg homodimer (NR concentration 270 nM); test: PBM binding z-score (relative to random genomic background probes); higher = stronger binding; sequences stand for … in GC…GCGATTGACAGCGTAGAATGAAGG
PBM binding z-score overview

- chain: "CCGACTGGGGCAAAGGTTAACATACTCAGTACGA"
  PBM binding z-score: 2.03
- chain: "CAAACTAGGTCACATAGGTCAAAGTCCGTGCGTA"
  PBM binding z-score: 6.3
- chain: "GTACCAAGGTGAATAGGTCGTTGACGAGTAGGCG"
  PBM binding z-score: 1.53
- chain: "AAATGTAGGTTACATCCGGGTCATTCAGGCTATG"
  PBM binding z-score: 2
- chain: "AGAATGAGGTTATACGTAGATCCGGGAAGAAAGT"
  PBM binding z-score: 0.944
- chain: "GCGACTGGGGCATCAGCAGGTTACAATAACTTAA"
  PBM binding z-score: 0.522
- chain: "TCTGCTAGGTCAGTTGGTCTGCTAACGAGCTGCC"
  PBM binding z-score: 3.27
- chain: "AGAATGAGGTTACCAAAGATCATGGAAACGCTTG"
  PBM binding z-score: 1.87
- chain: "ATATGTAGGTTACATCCGGATCATTCAGGCTATG"
  PBM binding z-score: 1.25
- chain: "CTCGAAAGGTCGGTTGAGATGAGTATACGGATAA"
  PBM binding z-score: 2.5
- chain: "CCTAGTTGGTAAAGGTCACACACGCTATAGGTAC"
  PBM binding z-score: 6.12
- chain: "AGTCAAAGTTCACTAGGTAACTTAAGATTCAGCT"
  PBM binding z-score: 5.58
- chain: "TCTAGTTGGTCACGGAGGTCACATACGACGGGTA"
  PBM binding z-score: 4.92
- chain: "ATCTCTAGGAAAAGTTCAGTGAAAGATCGATAGA"
  PBM binding z-score: 1.87
- chain: "CAGCCTAGGTCAGGACCAGTATAGGAGGAACGTT"
  PBM binding z-score: 3.89
- chain: "CAGCCTAGGGCAGGGCCAGTATAGGAGGAACGTT"
  PBM binding z-score: 0.654
- chain: "TTGAGTAGGTTAGGGGCATTCAGAATGGCGTCGA"
  PBM binding z-score: 0.689
- chain: "CCGAATGGGGCAAGGTTACCATAACGCACAGCCA"
  PBM binding z-score: 1.37
- chain: "ATCGAATGGTCGACGAGGTGAGTATACACCGTTT"
  PBM binding z-score: 0.526
- chain: "CCTACTGGGCAATCAGGTCATTGATATCAACGTT"
  PBM binding z-score: 1.51
- chain: "ACTATTAGTGGACTTAGGGCAACCGATACGACGC"
  PBM binding z-score: 0.779
- chain: "ACAACGAGGGCAATGAGTTGATAGCACGGGTGGC"
  PBM binding z-score: 1.71

---

tested on: LXRa:RXRa (NR concentration 270 nM, RXRa partner concentration 90 nM); assay: PBM binding z-score (relative to random genomic background probes); higher = stronger binding; sequences stand for … in GC…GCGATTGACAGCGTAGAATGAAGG

- chain: "ATTGAAAGGTCGAAGGTGAGTATACCCACCCGAA"
  PBM binding z-score: 3.47
- chain: "TCATATAGGTAAAGGGGAAAGTCGAACGATATGA"
  PBM binding z-score: 0.796
- chain: "TCAGACAGGTGAACGTAACTCAGGTACGCAGTCG"
  PBM binding z-score: 0.558
- chain: "CAACCTAGGTCAGGGCCAGTATAGGAGGAACGTT"
  PBM binding z-score: 1.36
- chain: "AATACAGGGTCAGCGTAGGCCAGAGTACGCACAG"
  PBM binding z-score: 4.35
- chain: "TCTGCTAGGGCAACGATGGTCAGCTAATCTGCTA"
  PBM binding z-score: -0.36
- chain: "TCTAGTTGGTCACTGAGGTCACACACGACGGGTA"
  PBM binding z-score: 3.64
- chain: "GCTAGTTGGGCAGTAAAAGGTCACACACCGGTCG"
  PBM binding z-score: 4.3
- chain: "ATACCAAGGTGATAGTGAGGTCGTTGATACTAAC"
  PBM binding z-score: 1.39
- chain: "TCTCGGAGGATACGAAAGGTCAGAGCTCGACATC"
  PBM binding z-score: 4.17
- chain: "AGAACCAGGGCACGCTGAGTTGATAGCAGAGTAG"
  PBM binding z-score: 0.136
- chain: "GATACAGGGTCAAGGCCAGAGTGCGCGTATTGAT"
  PBM binding z-score: 4.01
- chain: "CGTCCAAGGGCAAGGTCAGTGAAAGAGACTCGAA"
  PBM binding z-score: 1.58
- chain: "TCTAGTTGGTCAAAGGTCACACTCTCGAAATGCG"
  PBM binding z-score: 5.66
- chain: "TAGCCTAGGTCATTGGGCCAGTTTAGTACGCATC"
  PBM binding z-score: 3.21
- chain: "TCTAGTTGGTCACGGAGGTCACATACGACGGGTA"
  PBM binding z-score: 3.35
- chain: "CGTACAAGGTCAAGGTCAGTGAAAGAGACTCGAA"
  PBM binding z-score: 5.91
- chain: "ATCTCCAGGTAAGACTCAGTTCAGTGAAGAACGC"
  PBM binding z-score: 0.595
- chain: "CGAACGAGGTCAAGGACAGTGAATCTCCGCACGC"
  PBM binding z-score: 5.54
- chain: "CCTACTGGGCCATGCAGAGGTCATTGATCATATG"
  PBM binding z-score: 3.58
- chain: "TTGCCTAGGTCATTCAGGGGCCAGTATAGAAAGC"
  PBM binding z-score: 3.97
- chain: "CCGACTGGGGCAAGGTTACTATAACGCACAGCCA"
  PBM binding z-score: 1.52
- chain: "TCTGCTAGGTCAGATGGTCAGCTAACGAGCTGCC"
  PBM binding z-score: 0.977
- chain: "ACTAGCAGGCCAAGGGTCACTCGAGATTAGTCCG"
  PBM binding z-score: 2.89
